The reported measurements were obtained from patent US9255094B2.

- system-tested: human recombinant histamine H2 receptor (Homo sapiens, UniProt P25021)
- Construct: expressed in transfected cells; host or cells: Chinese hamster ovary (CHO) K1 cells
- Sequence (P25021 whole entry): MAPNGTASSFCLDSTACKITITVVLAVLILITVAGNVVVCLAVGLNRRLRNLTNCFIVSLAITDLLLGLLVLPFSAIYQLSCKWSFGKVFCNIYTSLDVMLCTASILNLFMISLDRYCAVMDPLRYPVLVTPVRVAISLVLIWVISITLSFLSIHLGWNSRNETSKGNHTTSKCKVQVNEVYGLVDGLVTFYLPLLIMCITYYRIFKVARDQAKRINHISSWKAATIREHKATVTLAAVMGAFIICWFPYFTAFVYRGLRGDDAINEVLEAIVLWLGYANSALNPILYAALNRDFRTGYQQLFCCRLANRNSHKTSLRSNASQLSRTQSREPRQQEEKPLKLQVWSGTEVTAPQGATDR
- assay: Histamine H2 radioligand binding assay ([125I]Aminopotentidine)
- protocol-conditions: compound at 1 μM; 0.1 nM [125I]Aminopotentidine; receptor expressed in CHO-K1 cells

{"compound": "CN1CCc2c(c3cc(Cl)ccc3n2CC(=O)c2ccccc2)C1 [Compound 1-36]", "quantity-unit": "%", "inhibition at 1 µM": 48}
{"compound": "Cc1ccc2c(c1)c1c(n2CCc2ccc(C)nc2)CCN(CCCO)C1 [Compound 1-42]", "quantity-unit": "%", "inhibition at 1 µM": 16}
{"compound": "CN1CCc2c(c3cc(Cl)ccc3n2CC(=O)c2ccc(F)cc2)C1 [Compound 1-37]", "quantity-unit": "%", "inhibition at 1 µM": 80}
{"compound": "Cc1ccc2c(c1)c1c(n2CCc2ccc(C)nc2)CCN(CCCCO)C1 [Compound 1-43]", "quantity-unit": "%", "inhibition at 1 µM": 21}
